Recorded values, source ChEMBL document CHEMBL1201862.

Catalogue of GI50 values
test system: HOP-62; test: NCI tumour cell line growth inhibition, 48 h
Activity calls are given as the source filed them. No stated cut-off is given here; in the data, active = GI50 up to about 1.1 µM and inactive = higher.

> print(dat)
                                   compound       value.observed
1  CC(=O)CC1=C(OC(C)C)C2(OCCO2)C1O (stereo not given)  > 100 µM (inactive)

The value of GI50 recorded for "O=C(O)c1cc2ccccc2c(/N=N\c2cc(C(F)(F)F)ccc2Cl)c1O" when tested on HOP-62 reads 38.1 µM (inactive)

The value of GI50 recorded for "NCCN(CCN(C(=O)Nc1ccccc1)c1ccccc1)C(=O)Nc1ccccc1" when tested on HOP-62 reads 16.7 µM (inactive)

The value of GI50 recorded for "CC(C)c1cc(=O)[nH]c2cc(N)ccc12" when tested on HOP-62 reads > 100 µM (inactive)
